Below, each entry is listed with its recorded Kd.
# assay target: T1, PUF4 RNA-binding domain (Saccharomyces cerevisiae, UniProt P25339 537-888)
# T1 sequence: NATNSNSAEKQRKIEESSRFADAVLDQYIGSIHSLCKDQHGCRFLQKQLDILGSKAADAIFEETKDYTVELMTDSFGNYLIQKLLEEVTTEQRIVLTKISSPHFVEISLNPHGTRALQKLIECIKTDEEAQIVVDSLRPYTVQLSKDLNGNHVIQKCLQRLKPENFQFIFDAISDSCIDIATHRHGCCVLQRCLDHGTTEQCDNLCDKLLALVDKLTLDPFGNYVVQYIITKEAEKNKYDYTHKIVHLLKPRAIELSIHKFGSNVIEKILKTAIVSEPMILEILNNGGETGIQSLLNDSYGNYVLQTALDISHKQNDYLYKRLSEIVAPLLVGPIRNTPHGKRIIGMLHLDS
# protocol: Mg; RNA-MaP; 20 mM Na-HEPES pH 7.4, 30 mM KOAc, 0.75 mM MgCl2, 0.1% Tween-20, 5% glycerol, 0.1 mg/mL BSA, 2 mM DTT; 25 C; 0.0125-409.6 nM protein
# experimental setup: tags: N-His6-TEV cleaved; C-SNAP kept, Cy3B-labelled; label: tethered on chip by stalled RNA polymerase
Quick reminder: number only, in nM, skip the unit.

# query: Kd of entry Ie_S2_P4E.1_K4.1_C4.1_H4.1_A4.1_F4.1_[+8CT]_T4.1 (ssRNA) RNA: UUUGAUUAAUAUGAUAUCGUUCUUUCUUGUAUAUUCUAUUCUUUCUCGAUAUCAUAUUAAUCUUU
3.57

# query: Kd of entry UCUCUUUUUGUAUAUUAAUUCUCUU (ssRNA) [Id_ii_S1_P4E.2_K4.1_C4.2_[C-2T]_H4.1_A4.1_F4.1_T4.2_[G10A]]
1.09

# query: Kd of entry UCUCUUGCUAUAUAUUACAUCUCUU (ssRNA) [Id_ii_S1_P4E.3_K4.2_C4.2_[C-2G]_[T-1C]_H4.2_A4.1_F4.1_T4.2_[G10C]_[T11A]]
44.4

# query: Kd of entry UCUCUUUGUACUAAAAUCUCUU (ssRNA) [Ic_S1_P5E.1_K5.1_C5.1_H5.1_A5.1_[T5C]_F5.1_[T8A]_[T9A]_T5.1]
58.8

# query: Kd of entry Id_ii_S2_P5E.4_K5.3_C5.2_[C-2G]_[T-1C]_H5.3_A5.1_F5.1_T5.2_[A12C] (ssRNA) RNA: UUUGAUUAAUAUGAUAUCGUUCUUUCUGCACACUUAUUAUCUUCUUUCUCGAUAUCAUAUUAAUCUUU
359

The reported measurements were obtained from paper PMC9352680.
